assay: Cytotoxicity against mouse J774 cells assessed as cell viability at 1 ug/mL after 24 hrs by MTT assay; format: cell-based; conditions: read-out: Activity
Exercise: for every item that follows, state its recorded viability at 24 h, 1 ug/mL.
Please reply with the bare figure in % and do not write the unit itself.

Could you share which viability at 24 h, 1 ug/mL value was measured for Cc1c(O)cccc1C(=O)N[C@@H](Cc1ccccc1)[C@H](O)CN1CCN(Cc2ccc3c(c2)OCO3)CC1 ?
75

Could you share which viability at 24 h, 1 ug/mL value was measured for O=C(N[C@@H](Cc1ccccc1)[C@H](O)CN1CCN(Cc2ccc3c(c2)OCO3)CC1)c1cc(Cl)cc(Cl)c1 ?
100

Could you share which viability at 24 h, 1 ug/mL value was measured for COc1ccc(CN2CCN(C[C@@H](O)[C@H](Cc3ccccc3)NS(=O)(=O)c3ccc(C)cc3)CC2)cc1OC ?
100

Could you share which viability at 24 h, 1 ug/mL value was measured for O=S(=O)(N[C@@H](Cc1ccccc1)[C@H](O)CN1CCN(Cc2ccc3c(c2)OCO3)CC1)c1ccc(F)cc1 ?
94

Could you share which viability at 24 h, 1 ug/mL value was measured for O=C(N[C@@H](Cc1ccccc1)[C@H](O)CN1CCN(Cc2ccc3c(c2)OCO3)CC1)c1ccccc1 ?
100

Could you share which viability at 24 h, 1 ug/mL value was measured for COc1ccc(CN2CCN(C[C@@H](O)[C@H](Cc3ccccc3)NS(=O)(=O)c3ccc(C)cc3)CC2)cc1 ?
90

Could you share which viability at 24 h, 1 ug/mL value was measured for Cc1ccc(S(=O)(=O)N[C@@H](Cc2ccccc2)[C@H](O)CN2CCN(Cc3ccc([N+](=O)[O-])cc3)CC2)cc1 ?
100

Could you share which viability at 24 h, 1 ug/mL value was measured for Cc1ccc(S(=O)(=O)N[C@@H](Cc2ccccc2)[C@H](O)CN2CCN(Cc3ccccc3)CC2)cc1 ?
86

----------
assay: Cytotoxicity against mouse J774 cells assessed as cell viability at 10 ug/mL after 24 hrs by MTT assay; format: cell-based; settings: read-out: Activity
Exercise: for every item that follows, state its recorded viability at 24 h, 10 ug/mL.
Field note: include the unit after the figure.

Could you share which viability at 24 h, 10 ug/mL value was measured for O=C(N[C@@H](Cc1ccccc1)[C@H](O)CN1CCN(Cc2ccc3c(c2)OCO3)CC1)c1ccc2c(c1)OCO2 ?
95%

Could you share which viability at 24 h, 10 ug/mL value was measured for O=C(N[C@@H](Cc1ccccc1)[C@H](O)CN1CCN(Cc2ccc3c(c2)OCO3)CC1)c1ccccc1 ?
91%

Could you share which viability at 24 h, 10 ug/mL value was measured for O=S(=O)(N[C@@H](Cc1ccccc1)[C@H](O)CN1CCN(Cc2ccc3c(c2)OCO3)CC1)c1ccc(Br)cc1 ?
96%

Could you share which viability at 24 h, 10 ug/mL value was measured for Cc1ccc(S(=O)(=O)N[C@@H](Cc2ccccc2)[C@H](O)CN2CCN(Cc3ccc4c(c3)OCO4)CC2)cc1 ?
98%

Could you share which viability at 24 h, 10 ug/mL value was measured for Cc1ccc(S(=O)(=O)N[C@@H](Cc2ccccc2)[C@H](O)CN2CCN(Cc3ccc(N)cc3)CC2)cc1 ?
77%

Could you share which viability at 24 h, 10 ug/mL value was measured for O=[N+]([O-])c1ccc(S(=O)(=O)N[C@@H](Cc2ccccc2)[C@H](O)CN2CCN(Cc3ccc4c(c3)OCO4)CC2)cc1 ?
100%

Could you share which viability at 24 h, 10 ug/mL value was measured for Cc1ccc(S(=O)(=O)N[C@@H](Cc2ccccc2)[C@H](O)CN2CCN(Cc3ccc([N+](=O)[O-])cc3)CC2)cc1 ?
93%

Could you share which viability at 24 h, 10 ug/mL value was measured for COc1ccc(S(=O)(=O)N[C@@H](Cc2ccccc2)[C@H](O)CN2CCN(Cc3ccc4c(c3)OCO4)CC2)cc1 ?
90%

Could you share which viability at 24 h, 10 ug/mL value was measured for COc1ccc(CN2CCN(C[C@@H](O)[C@H](Cc3ccccc3)NS(=O)(=O)c3ccc(C)cc3)CC2)cc1 ?
84%

Could you share which viability at 24 h, 10 ug/mL value was measured for O=C(N[C@@H](Cc1ccccc1)[C@H](O)CN1CCN(Cc2ccc3c(c2)OCO3)CC1)c1cc(Cl)cc(Cl)c1 ?
98%

Could you share which viability at 24 h, 10 ug/mL value was measured for Nc1ccc(S(=O)(=O)N[C@@H](Cc2ccccc2)[C@H](O)CN2CCN(Cc3ccc4c(c3)OCO4)CC2)cc1 ?
99%

Could you share which viability at 24 h, 10 ug/mL value was measured for O=S(=O)(N[C@@H](Cc1ccccc1)[C@H](O)CN1CCN(Cc2ccc3c(c2)OCO3)CC1)c1ccc(F)cc1 ?
83%

Could you share which viability at 24 h, 10 ug/mL value was measured for Cc1c(O)cccc1C(=O)N[C@@H](Cc1ccccc1)[C@H](O)CN1CCN(Cc2ccc3c(c2)OCO3)CC1 ?
8%

Could you share which viability at 24 h, 10 ug/mL value was measured for COc1ccc(CN2CCN(C[C@@H](O)[C@H](Cc3ccccc3)NS(=O)(=O)c3ccc(C)cc3)CC2)cc1OC ?
92%

Could you share which viability at 24 h, 10 ug/mL value was measured for Cc1ccc(S(=O)(=O)N[C@@H](Cc2ccccc2)[C@H](O)CN2CCN(Cc3ccc(F)cc3)CC2)cc1 ?
92%

Could you share which viability at 24 h, 10 ug/mL value was measured for Cc1ccc(S(=O)(=O)N[C@@H](Cc2ccccc2)[C@H](O)CN2CCN(Cc3ccc(Cl)cc3)CC2)cc1 ?
90%

Could you share which viability at 24 h, 10 ug/mL value was measured for O=C(N[C@@H](Cc1ccccc1)[C@H](O)CN1CCN(Cc2ccc3c(c2)OCO3)CC1)c1c(Cl)cccc1Cl ?
84%

Could you share which viability at 24 h, 10 ug/mL value was measured for Cc1ccc(S(=O)(=O)N[C@@H](Cc2ccccc2)[C@H](O)CN2CCN(Cc3ccccc3)CC2)cc1 ?
88%

Could you share which viability at 24 h, 10 ug/mL value was measured for O=C(N[C@@H](Cc1ccccc1)[C@H](O)CN1CCN(Cc2ccc3c(c2)OCO3)CC1)c1c(F)cccc1F ?
83%

----------
Exercise: for every item that follows, state its recorded viability at 24 h, 0.1 ug/mL.
assay: Cytotoxicity against mouse J774 cells assessed as cell viability at 0.1 ug/mL after 24 hrs by MTT assay; format: cell-based; conditions: read-out: Activity
Please reply with the bare figure in % and do not write the unit itself.

Could you share which viability at 24 h, 0.1 ug/mL value was measured for O=C(N[C@@H](Cc1ccccc1)[C@H](O)CN1CCN(Cc2ccc3c(c2)OCO3)CC1)c1ccc2c(c1)OCO2 ?
100

Could you share which viability at 24 h, 0.1 ug/mL value was measured for O=C(N[C@@H](Cc1ccccc1)[C@H](O)CN1CCN(Cc2ccc3c(c2)OCO3)CC1)c1cc(Cl)cc(Cl)c1 ?
98

Could you share which viability at 24 h, 0.1 ug/mL value was measured for Cc1ccc(S(=O)(=O)N[C@@H](Cc2ccccc2)[C@H](O)CN2CCN(Cc3ccc(F)cc3)CC2)cc1 ?
100

Could you share which viability at 24 h, 0.1 ug/mL value was measured for Cc1ccc(S(=O)(=O)N[C@@H](Cc2ccccc2)[C@H](O)CN2CCN(Cc3ccc(N)cc3)CC2)cc1 ?
100

Could you share which viability at 24 h, 0.1 ug/mL value was measured for Cc1ccc(S(=O)(=O)N[C@@H](Cc2ccccc2)[C@H](O)CN2CCN(Cc3ccccc3)CC2)cc1 ?
100

Could you share which viability at 24 h, 0.1 ug/mL value was measured for COc1ccc(S(=O)(=O)N[C@@H](Cc2ccccc2)[C@H](O)CN2CCN(Cc3ccc4c(c3)OCO4)CC2)cc1 ?
100

Could you share which viability at 24 h, 0.1 ug/mL value was measured for Cc1ccc(S(=O)(=O)N[C@@H](Cc2ccccc2)[C@H](O)CN2CCN(Cc3ccc([N+](=O)[O-])cc3)CC2)cc1 ?
91

Could you share which viability at 24 h, 0.1 ug/mL value was measured for O=[N+]([O-])c1ccc(S(=O)(=O)N[C@@H](Cc2ccccc2)[C@H](O)CN2CCN(Cc3ccc4c(c3)OCO4)CC2)cc1 ?
100

Could you share which viability at 24 h, 0.1 ug/mL value was measured for O=C(N[C@@H](Cc1ccccc1)[C@H](O)CN1CCN(Cc2ccc3c(c2)OCO3)CC1)c1c(Cl)cccc1Cl ?
100

Could you share which viability at 24 h, 0.1 ug/mL value was measured for O=C(N[C@@H](Cc1ccccc1)[C@H](O)CN1CCN(Cc2ccc3c(c2)OCO3)CC1)c1ccccc1 ?
100

Could you share which viability at 24 h, 0.1 ug/mL value was measured for COc1ccc(CN2CCN(C[C@@H](O)[C@H](Cc3ccccc3)NS(=O)(=O)c3ccc(C)cc3)CC2)cc1 ?
100

Could you share which viability at 24 h, 0.1 ug/mL value was measured for Nc1ccc(S(=O)(=O)N[C@@H](Cc2ccccc2)[C@H](O)CN2CCN(Cc3ccc4c(c3)OCO4)CC2)cc1 ?
100

Could you share which viability at 24 h, 0.1 ug/mL value was measured for O=S(=O)(N[C@@H](Cc1ccccc1)[C@H](O)CN1CCN(Cc2ccc3c(c2)OCO3)CC1)c1ccc(Br)cc1 ?
100

Could you share which viability at 24 h, 0.1 ug/mL value was measured for COc1ccc(CN2CCN(C[C@@H](O)[C@H](Cc3ccccc3)NS(=O)(=O)c3ccc(C)cc3)CC2)cc1OC ?
100

Could you share which viability at 24 h, 0.1 ug/mL value was measured for Cc1c(O)cccc1C(=O)N[C@@H](Cc1ccccc1)[C@H](O)CN1CCN(Cc2ccc3c(c2)OCO3)CC1 ?
100

Could you share which viability at 24 h, 0.1 ug/mL value was measured for O=C(N[C@@H](Cc1ccccc1)[C@H](O)CN1CCN(Cc2ccc3c(c2)OCO3)CC1)c1c(F)cccc1F ?
85
